- Target: alpha 2B adrenergic receptor (Homo sapiens, UniProt P18089)
- Construct: expressed in transfected cells; host or cells: NIH-3T3 cells, transient cotransfection by calcium phosphate
- Sequence (P18089 whole entry): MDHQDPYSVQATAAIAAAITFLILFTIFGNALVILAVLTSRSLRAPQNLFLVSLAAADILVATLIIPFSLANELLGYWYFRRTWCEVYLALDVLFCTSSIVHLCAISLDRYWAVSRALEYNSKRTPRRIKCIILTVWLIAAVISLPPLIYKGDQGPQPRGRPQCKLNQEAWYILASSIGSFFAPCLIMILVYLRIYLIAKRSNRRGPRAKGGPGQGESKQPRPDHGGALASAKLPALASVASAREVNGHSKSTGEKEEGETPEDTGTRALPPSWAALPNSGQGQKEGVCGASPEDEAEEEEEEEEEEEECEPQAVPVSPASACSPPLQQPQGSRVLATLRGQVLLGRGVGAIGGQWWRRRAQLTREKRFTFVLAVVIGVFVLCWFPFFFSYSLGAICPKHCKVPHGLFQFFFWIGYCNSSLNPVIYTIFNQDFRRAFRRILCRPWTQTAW
- Assay Overview: RSAT (Receptor Selection and Amplification Technology) assay, alpha 2B
- Format: cell-based
- Condition Parameters: NIH-3T3 cells cotransfected with receptor and Gq/i5
Listed next: entries and their corresponding EC50.
Readout: EC50 (nM)

1) OCCNC(=S)NCc1cccc(Cl)c1Cl    3
2) OCCNC(=S)NCc1c(F)ccc(Br)c1F    205
3) OCCNC(=S)NCc1ccccc1I    21
4) OCCNC(=S)NCc1ccccc1C(F)(F)F    694
5) Cc1cc(Cl)cc(CNC(=S)NCCO)c1F    37.5
6) OCCNC(=S)NCc1c(F)cccc1Cl    174
7) OCCNC(=S)NCc1cc(Br)cc(Cl)c1F    117
8) Cc1ccc(CNC(=S)NCCO)cc1    59
9) OCCNC(=S)NCc1cc(Cl)ccc1F    17
10) OCCNC(=S)NCc1c(F)c(F)cc(F)c1F    243
11) Cc1cc(CNC(=S)NCCO)c(F)c(F)c1F    120
12) OCCNC(=S)NCc1c(Cl)ccc(Cl)c1F    89
13) COc1cccc(CNC(=S)NCCO)c1F    429
14) OCCNC(=S)NCc1cccc(C(F)(F)F)c1    495
